biological target: Fibroblast growth factor 10 (Homo sapiens) (UniProt O15520); experiment: compounds binding fibroblast growth factor 10 – biochemical, small-molecule microarray, 635 nm fluorescence, primary screen (AID 1102); settings: FGF10 binding, fluorescence 635 nm, higher = more signal
Sequence (O15520 whole entry, looked up): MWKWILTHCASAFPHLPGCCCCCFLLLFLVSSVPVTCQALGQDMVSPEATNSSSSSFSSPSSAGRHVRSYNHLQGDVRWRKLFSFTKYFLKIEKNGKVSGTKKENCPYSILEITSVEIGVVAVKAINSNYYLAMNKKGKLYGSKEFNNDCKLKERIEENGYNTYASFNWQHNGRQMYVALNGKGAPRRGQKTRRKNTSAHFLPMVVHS

compound | target_or_system | composite z-score
CN1C(=O)C2C=CC(C(O)c3ccc(F)cc3)N(N3CCCCC3)C2C1=O (centres undefined) | Fibroblast growth factor 10 (Homo sapiens) (UniProt O15520) | 0.252
C=CC[C@@]1(C(=O)NCC(O)CO)N=C(c2ccc(OCCCO)cc2)O[C@@H]1c1ccccc1 (some centres undefined) | Fibroblast growth factor 10 (Homo sapiens) (UniProt O15520) | 1.47
O=C1O[C@H](c2ccccc2)[C@H](c2ccccc2)N2[C@H]1[C@@H](C(=O)N1CCN(c3ncccn3)CC1)[C@]1(C(=O)Nc3ccc(C#CCCO)cc31)[C@H]2c1ccc(OCCO)cc1 | Fibroblast growth factor 10 (Homo sapiens) (UniProt O15520) | 1.11
OCCCC1=CC(c2cccs2)N(Cc2cccc(OC(F)(F)F)c2)CC1 (centres undefined) | Fibroblast growth factor 10 (Homo sapiens) (UniProt O15520) | -0.566
O=C1O[C@@H](c2ccccc2)[C@@H](c2ccccc2)N2[C@@H](c3ccc(O)cc3)[C@]3(C(=O)Nc4ccc(C#CC5=CCCCC5)cc43)[C@@H](C(=O)Nc3nc4ccccc4s3)[C@H]12 | Fibroblast growth factor 10 (Homo sapiens) (UniProt O15520) | 1.36
CC(C)(C)OC(=O)CC[C@@]1(C(=O)N2CCCCC2)N=C(c2ccc(OCCCO)cc2)O[C@@H]1c1ccccc1N=[N+]=[N-] | Fibroblast growth factor 10 (Homo sapiens) (UniProt O15520) | 1.19
CN1C(=O)C2C=CC(C(O)COCc3ccccc3)N(Nc3ccccc3)C2C1=O (centres undefined) | Fibroblast growth factor 10 (Homo sapiens) (UniProt O15520) | 0.558
CCCN1C(=O)[C@@H]2Cc3c([nH]c4ccccc34)[C@@H](c3cccc(O)c3)N2C1=O | Fibroblast growth factor 10 (Homo sapiens) (UniProt O15520) | 0.415
[N-]=[N+]=NCc1ccccc1C[C@@]1(C(=O)NCCN2CCOCC2)N=C(c2ccc(OCCCO)cc2)O[C@@H]1c1ccccc1CN=[N+]=[N-] | Fibroblast growth factor 10 (Homo sapiens) (UniProt O15520) | 1.15

----------
This listing pairs compounds with measured composite z-score.
molecular target: Carbonic anhydrase 2 (Homo sapiens); assay: compounds binding carbonic anhydrase 2 – biochemical, small-molecule microarray, Alexa647-labelled CAII, profiling panel (AID 1122); conditions: CAII-A647 binding fluorescence, higher = more signal

structure | composite z-score
COc1cc2c(cc1OC)CN(C(=O)[C@@H]1[C@H]3C(=O)O[C@H](c4ccccc4)[C@H](c4ccccc4)N3[C@H](c3ccc(O)cc3)[C@@]13C(=O)Nc1ccc(C#CCNC(N)=O)cc13)CC2 | -0.0348
C=CCNC(=O)[C@H]1[C@@H]2C(=O)O[C@@H](c3ccccc3)[C@@H](c3ccccc3)N2[C@@H](c2ccc(O)cc2)[C@]12C(=O)N(C(=O)OCCOC)c1ccc(C#CC3(O)CCCCCC3)cc12 | 0.39
COCCCNC(=O)[C@@]1(Cc2ccccc2)COC(c2ccc(OCCCO)cc2)=N1 | 0.739
COCCOC(=O)N1C(=O)[C@@]2(c3cc(C#CCNC(N)=O)ccc31)[C@H](C(N)=O)[C@H]1C(=O)O[C@H](c3ccccc3)[C@H](c3ccccc3)N1[C@@H]2c1ccc(OCCO)cc1 | 0.52
COc1ccc(C#Cc2ccc3c(c2)[C@]2(C(=O)N3)[C@H](c3ccc(OCCO)cc3)N3[C@H](c4ccccc4)[C@H](c4ccccc4)OC(=O)[C@H]3[C@@H]2C(=O)N2CCN(c3ncccn3)CC2)cc1 | 0.39
COCCOC(=O)N1C(=O)[C@@]2(c3ccccc31)[C@H](c1ccc(OCCO)cc1)N1[C@H](c3ccccc3)[C@H](c3ccccc3)OC(=O)[C@H]1[C@@H]2C(=O)NC[C@H](O)c1ccccc1 | 0.505

----------
target: Focal adhesion kinase 1 (Homo sapiens); test: PTK2 protein binding on printed compound slides – biochemical, small-molecule microarray, 635/667 nm fluorescence, BSA, DTT, primary screen (AID 1130); conditions: 635 nm fluorescence, higher = more signal;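 note: composite of spot emission at 667 nm and signal to noise over triplicate slides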
Binary classification by composite z-score, with 0.4 as an inclusive lower bound for Yes; all other cases are No.

molecule | group
O=C1OCCC=C[C@H]2OC34C=CCN(Cn5nnc6ccccc65)C(=O)[C@H]3N(CCCCCO)C(=O)[C@@H]4C12 (some centres undefined) | No
COc1cc2c(cc1OC)CN(C(=O)[C@@H]1[C@H]3C(=O)O[C@H](c4ccccc4)[C@H](c4ccccc4)N3[C@H](c3ccc(O)cc3)[C@@]13C(=O)Nc1ccc(C#CCNC(N)=O)cc13)CC2 | Yes
[N-]=[N+]=NCc1ccccc1C[C@]1(C(=O)NCCN2CCOCC2)COC(c2ccc(OCCCO)cc2)=N1 | Yes
COCCCNC(=O)[C@@H]1c2ccccc2C(=O)N(Cc2cc(F)cc(C(F)(F)F)c2)[C@H]1c1ccc(CO)cc1 | No
O=C1O[C@H](c2ccccc2)[C@H](c2ccccc2)N2[C@H]1[C@@H](C(=O)N1CCN(c3ncccn3)CC1)[C@]1(C(=O)Nc3ccc(C#CCCO)cc31)[C@H]2c1ccccc1OCCO | No
CC(C)N1CC=CC23O[C@@H]4C=CCOC(=O)[C@@H]4[C@H]2C(=O)N(CCCCCCO)[C@@H]3C1=O (some centres undefined) | No
NC(=O)[C@@H]1[C@H]2C(=O)O[C@H](c3ccccc3)[C@H](c3ccccc3)N2[C@H](c2ccccc2OCCO)[C@@]12C(=O)Nc1ccc(C#CCCO)cc12 | No
Cc1ccc(S[C@]2(C(=O)O)CC(=O)N(C3CCCCC3)[C@@H]2c2ccc(CO)cc2)cc1 | Yes
COCCOC(=O)N1C(=O)[C@@]2(c3ccccc31)[C@H](c1ccc(OCCO)cc1)N1[C@H](c3ccccc3)[C@H](c3ccccc3)OC(=O)[C@H]1[C@@H]2C(=O)NC[C@H](O)c1ccccc1 | No
CC1CC/C=C\[C@H]2OC34C=CCN(Cc5ccccc5)C(=O)[C@H]3N(CCO)C(=O)[C@@H]4C2C(=O)O1 (some centres undefined) | No
O=c1c2ccc(Br)cc2nc(-c2ccccc2)n1Cc1cccc(O)c1 | Yes
COCCCNC(=O)[C@@]1(Cc2ccccc2CN=[N+]=[N-])N=C(c2ccc(OCCCO)cc2)O[C@H]1c1ccccc1N=[N+]=[N-] | Yes
COCCOC(=O)N1C(=O)[C@@]2(c3cc(C#CC4(O)CCCCCC4)ccc31)[C@H](C(=O)N1CCN(c3ncccn3)CC1)[C@H]1C(=O)O[C@H](c3ccccc3)[C@H](c3ccccc3)N1[C@@H]2c1ccc(O)cc1 | No
C=C[C@@H](O)[C@H]1CC(c2ccccc2)=NO1 | No

----------
experiment: probe aLefty2 binding to arrayed compounds – biochemical, biotinylated probe, 635/667 nm fluorescence, primary screen (AID 1094); details: small-molecule microarray, higher = more signal;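 note: score merges spot fluorescence near 667 nm with spot signal-to-noise ratio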
Binary classification by composite z-score, with -0.03 as an inclusive lower bound for Met; all other cases are Not met.

compound | group
CN(C)C(=O)[C@@]1(CCS(=O)(=O)c2ccccc2)N=C(c2ccc(OCCCO)cc2)O[C@H]1c1ccccc1CN=[N+]=[N-] | Met
O=C1N(Cc2ccccc2)c2ccccc2[C@H]2OC(c3ccc(OCCCO)cc3)=N[C@@]12CCS(=O)(=O)c1ccccc1 | Met
[N-]=[N+]=NCc1ccccc1[C@H]1OC(c2ccc(OCCCO)cc2)=N[C@@]1(Cc1ccccc1N=[N+]=[N-])C(=O)N1CCCCC1 | Met
CC(C)C(CO)N1C(=O)[C@@H]2[C@H]3C(=O)OCC=C[C@H]3OC23C=CCN(Cn2nnc4ccccc42)C(=O)[C@@H]13 (stereo partly drawn) | Not met
COC(=O)[C@@]1(Cc2ccc(F)cc2)[C@@H]2[C@@H](CC(=O)[C@H]2CC(=O)C(=O)N2CCCC2)CN1C(=O)c1ccccc1 | Met
C[C@@]1([C@@H](NC(=O)c2cccs2)c2ccc(-c3ccccc3)cc2)C[C@H]1C1CCCCC1 | Not met
COc1ccc([Si](C)(C)[C@@H]2[C@@H](CC(=O)N(CCO)Cc3ccccc3)O[C@]3(C(=O)N(Cc4ccc(N5CCOC5=O)cc4)c4ccccc43)[C@H]2C)cc1 | Not met
COC(=O)C(CC#Cc1ccc2c(c1)[C@]1(C(=O)N2)[C@H](c2ccccc2OCCO)N2[C@H](c3ccccc3)[C@H](c3ccccc3)OC(=O)[C@H]2[C@@H]1C(=O)Nc1nc2ccccc2s1)C(=O)OC | Not met
C=C(/C(=C/C[C@@H](OC(C)=O)c1ccccc1OCCO)c1cnc2ccccc2c1)C(C)C | Not met
COc1ccccc1CN1C(=O)c2ccccc2[C@@H](C(=O)NCC(C)C)[C@@H]1c1ccc(CO)cc1 | Met
COCCCNC(=O)[C@]1(Cc2ccccc2)N=C(c2ccc(OCCCO)cc2)O[C@@H]1c1ccccc1N=[N+]=[N-] | Met
O=C1c2ccccc2[C@](Cc2ccccc2I)(C(=O)NCC(F)(F)F)[C@H](c2ccc(CO)cc2)N1Cc1ccccc1 | Not met
CC(=O)NCCCC[C@@H]1NC(=O)[C@H]2C[C@@H](C(=O)NCCCCCN)[C@@H](c3cccc(OCCO)c3)N2C1=O | Not met
C=CCOC(=O)[C@@H]1[C@H]2C(=O)O[C@H](c3ccccc3)[C@H](c3ccccc3)N2[C@H](c2ccc(OCCOC(=O)[C@@H]3C[C@@H]4C(=O)N5CCC[C@H]5C(=O)N4[C@@H]3c3cccc(OCCO)c3)cc2)[C@@]12C(=O)Nc1ccc(I)cc12 | Not met
O=C1OCC=C[C@H]2OC34C=CCN(CCN5CCOCC5)C(=O)[C@H]3N(CCCCCO)C(=O)[C@@H]4[C@@H]12 (stereo partly drawn) | Met
O=C1O[C@H](c2ccccc2)[C@H](c2ccccc2)N2[C@H]1[C@@H](C(=O)N1CCN(c3ncccn3)CC1)[C@]1(C(=O)Nc3ccc(C#CCCO)cc31)[C@H]2c1ccccc1OCCO | Not met
O=C(O)[C@]1(CCS(=O)(=O)c2ccccc2)N=C(c2ccc(OCCCO)cc2)O[C@@H]1c1ccccc1 | Met
O=C1NC(=O)C2C1C=CC(C(O)c1ccc3c(c1)OCO3)N2Nc1ccc(Cl)cc1Cl (stereo not drawn) | Met
O=C1O[C@H](c2ccccc2)[C@H](c2ccccc2)N2[C@H]1[C@@H](C(=O)N1CCN(c3ncccn3)CC1)[C@]1(C(=O)Nc3ccc(C#CCCO)cc31)[C@H]2c1ccc(OCCO)cc1 | Met
CC(C)(C)OC(=O)CC[C@@]1(C(=O)N2CCCCC2)N=C(c2ccc(OCCCO)cc2)O[C@@H]1c1ccccc1N=[N+]=[N-] | Met
CC(C)(C)N1CC=CC23O[C@@H]4C=CCCOC(=O)C4[C@H]2C(=O)N(CCCO)[C@@H]3C1=O (stereo partly drawn) | Not met
COCCOC(=O)N1C(=O)[C@@]2(c3cc(C#Cc4ccc(OC)cc4)ccc31)[C@H](C(=O)N1CCc3cc(OC)c(OC)cc3C1)[C@H]1C(=O)O[C@H](c3ccccc3)[C@H](c3ccccc3)N1[C@@H]2c1ccc(OCCO)cc1 | Not met
CCOC(=O)C1=CC[C@@H](c2ccc(N(CC)CC)cc2)N(S(=O)(=O)c2ccc(C)cc2)[C@H]1c1ccc([N+](=O)[O-])cc1 | Met
COC(=O)[C@@]1(Cc2ccc(OC)cc2)[C@H]2c3cc(C(=O)N4CCCC4)n(Cc4ccc(C)o4)c3C[C@H]2CN1C(=O)c1ccccc1 | Met
CC(C)(C)OC(=O)CC[C@]1(C(=O)O)COC(c2ccc(OCCCO)cc2)=N1 | Met
CCOC(=O)C[C@H]1[C@H](OC(=O)c2ccccc2-c2ccccc2)[C@@H](NC(=O)c2ccccc2)c2cc(OCCCO)ccc2N1C(=O)Cc1ccc(OC)cc1 | Not met
COc1ccc([Si](C)(C)[C@@H]2[C@@H](CC(=O)N(CCO)Cc3ccccc3)O[C@]3(C(=O)N(C)c4c(Br)cc(C)cc43)[C@H]2C)cc1 | Not met
CN1C(=O)C2C=CC(C(O)COCc3ccccc3)N(Nc3ccccc3)C2C1=O (stereo not drawn) | Met
